Known GI50 of a selection of compounds
# System: CCRF-CEM
# METHOD_DESCRIPTION: NCI tumour cell line growth inhibition, 48 h
Calls of active or inactive are those of the source. No stated cut-off is given here; in the data, active = GI50 up to about 1.1 µM and inactive = higher.
PARAMETER: GI50

COC1OC(C)C(O)CC1OS(=O)(=O)c1ccc(C)cc1 (stereo unspecified) ... > 100 µM (inactive)
Cc1ccc2c(c1)CC1(Cc3c(C)cccc3C1=O)C2=O (stereo unspecified) ... > 100 µM (inactive)
c1ccc2[nH]c3[nH]c4[nH]c5ccccc5[nH]c4[nH]c3[nH]c2c1 ... > 100 µM (inactive)
Cc1c2n(c(=O)[nH]c1=O)C1OC(CO)C(O2)C1O (stereo unspecified) ... > 100 µM (inactive)
COc1ccc2c(=O)cc(-c3ccncc3)oc2c1OC ... 29.1 µM (inactive)
Cn1nc(-c2ccccc2)nc1[N+](=O)[O-] ... > 10 µM (inactive)
N#CCCOc1cccc(C2(N3CCCCC3)CCCCC2)c1 ... > 100 µM (inactive)
CC1CCC(=O)C(C(O)CC2CC(=O)N(c3ccccc3)C(=O)C2)C1 (stereo unspecified) ... > 100 µM (inactive)
O=C(NCCNCCO)N/N=C/c1cccc([N+](=O)[O-])c1 ... > 100 µM (inactive)
CC(C)=CCC/C(C)=C/CC/C(C)=C/CC(CO)N(C)CC/C=C(\C)CCC=C(C)C (stereo unspecified) ... 3.03 µM (inactive)
CCOC(=O)/C=C1\Oc2ccccc2C1(C)O (stereo unspecified) ... > 100 µM (inactive)

* * *

Recorded GI50 values for a group of molecules are listed next.
# Test system: MDA-MB-435
# METHOD_DESCRIPTION: NCI tumour cell line growth inhibition, 48 h
Active and inactive are the calls of the source. Cut-off read from the data, not from the text of the source: active = GI50 up to about 1.1 µM and inactive = higher.
PARAMETER: GI50

COc1cc(/N=C\N(C)C)c2ncccc2c1 ... 28.5 µM (inactive)
CC(=O)OCC1OC(Nc2ccc3nc(C)n(-c4ccccc4)c(=O)c3c2)C(OC(C)=O)C(OC(C)=O)C1OC(C)=O (stereo not given) ... > 50 µM (inactive)
Cc1cccc(C(=O)O)c1CC1NCCC2c3ccccc3NC12 (stereo not given) ... > 100 µM (inactive)
NC(=O)c1oc([N+](=O)[O-])c(-c2ccccc2)c1-c1ccccc1 ... 14.9 µM (inactive)
CC/C=C(\C(=C/CC)[N+](=O)[O-])[N+](=O)[O-] ... 16.8 µM (inactive)

* * *

# Tested on: 786-0
# METHOD_DESCRIPTION: NCI tumour cell line growth inhibition, 48 h
The source made the active and inactive calls. Rule as the data show it: active = GI50 up to about 1.1 µM and inactive = higher.
PARAMETER: GI50

CCC(CC)NC1=C(NC(C)=O)C(=O)c2ccccc2C1=O ... > 50 µM (inactive)
C=C(C)OCOCCOC ... > 100 µM (inactive)
Cc1ccc2c(c1)CC1(Cc3c(C)cccc3C1=O)C2=O (stereo unspecified) ... > 100 µM (inactive)
COC1OC(C)C(O)CC1OS(=O)(=O)c1ccc(C)cc1 (stereo unspecified) ... > 100 µM (inactive)
COc1cc(/C=C2/C(=O)NC(Cc3cc(OC)c(OC)c(C)c3OC)C(=O)N2Cc2ccccc2)c(OC)c(C)c1OC (stereo unspecified) ... 79.3 µM (inactive)
CC#CCCCC1(C)CCNC1=S (stereo unspecified) ... > 10 µM (inactive)
CNC(=O)[C@H](Cc1ccccc1)NC(=O)N(CCC#N)CCN(C(=O)N[C@@H](Cc1ccccc1)C(=O)OC)c1ccccc1 ... > 100 µM (inactive)
C=C(Br)CN(C)CC(=C)Br ... > 100 µM (inactive)
CCCC(=O)Oc1c2ccsc2c(OC(=O)CCC)c2ccsc12 ... 4.55 µM (inactive)
COC(=O)[C@]12CC[C@H]3CN(C(=O)OCc4ccccc4)[C@H]([C@H]31)[C@H](c1ccccc1)N2 ... > 100 µM (inactive)
Cc1c(Cl)c(S(N)(=O)=O)cc(S(N)(=O)=O)c1NC(=O)c1ccc(Cl)cc1 ... > 100 µM (inactive)

* * *

# System: MOLT-4
# METHOD_DESCRIPTION: NCI tumour cell line growth inhibition, 48 h
The source made the active and inactive calls. No stated cut-off is given here; in the data, active = GI50 up to about 1.1 µM and inactive = higher.
GI50 values by entry
PARAMETER: GI50

O=C1c2ccccc2C(=O)N1CCN(CCN1C(=O)c2ccccc2C1=O)Cn1cccn1 ... > 100 µM (inactive)
COc1ccc2cc(CNCCCCCCNCc3ccc4cc(OC)ccc4c3)ccc2c1 ... 0.205 µM (active)
Nc1n[nH]c2c(C(=O)Nc3ccc(Cl)cc3)c(N)n(N)c(=O)c12 ... > 100 µM (inactive)
CCC1(CC)C(=O)N(C(=O)c2ccc(Cl)cc2)N(C(=O)c2ccccc2Cl)C1=O ... 20.6 µM (inactive)
O=C(O)c1ccccc1/N=N/c1ccc2oc(=O)c(C(=O)Nc3ccccc3)cc2c1 ... 32.8 µM (inactive)
CC(C)=CCC/C(C)=C/CC/C(C)=C/CC(CO)N(C)CC/C=C(\C)CCC=C(C)C (stereo not drawn) ... 2.39 µM (inactive)
CC1(C)CC(C#Cc2ccccc2)CC(C)(C)N1O ... 46 µM (inactive)
COc1cc(/C=C\c2cccnc2)cc(OC)c1OC ... 9.84 µM (inactive)
COC(=O)C#CC(N)=O ... 22.3 µM (inactive)
O=C(O)c1cc(/N=N/c2ccc([N+](=O)[O-])cc2)ccc1O ... 24.8 µM (inactive)
CCOC(=O)/C=C1\Oc2ccccc2C1(C)O (stereo not drawn) ... > 100 µM (inactive)
COC1OC(C)C(O)CC1OS(=O)(=O)c1ccc(C)cc1 (stereo not drawn) ... > 100 µM (inactive)
C=C1c2nc3ccccc3n2C=C(c2ccc(Cl)cc2)N1c1ccc(OC)cc1 ... 73.1 µM (inactive)
Cc1c(S(=O)(=O)/N=C(\NN)Nc2ccc(Cl)cc2)sc2ccc(Cl)cc12 ... 13.1 µM (inactive)
CCOc1cc(NC(C)=O)ccc1C(=O)NN1C(=O)C(Cl)C1c1ccc(O)c(OC)c1 (stereo not drawn) ... 5.3 µM (inactive)
COC1(OC)C(N(C)C)=C(Cl)C(=O)/C1=C/C=O ... > 100 µM (inactive)
O=C1NC(=O)C(C(=O)C(=O)Nc2cc(Cl)ccc2Cl)C(=O)N1 ... > 100 µM (inactive)
Oc1ccc(-c2nc3ccc4ccccc4c3c3c2CCCC3)c(O)c1 ... > 48.3 µM (inactive)
CCOC(=O)c1nc2ccc(Cl)cc2c2c1CCO2 ... 53.5 µM (inactive)
COc1nc(N=P(c2ccccc2)(c2ccccc2)c2ccccc2)cc(=O)[nH]1 ... > 100 µM (inactive)
COc1ccc(NC(=O)CC(=O)N/N=C/c2ccc(N(CCC#N)S(C)(=O)=O)cc2)cc1 ... > 100 µM (inactive)
ON(CCc1ccccn1)Cc1ccccc1 ... > 100 µM (inactive)
CC(=O)N1C2=CCCC2(C)c2ccccc21 (stereo not drawn) ... 62.8 µM (inactive)

* * *

# Test system: COLO 205
# METHOD_DESCRIPTION: NCI tumour cell line growth inhibition, 48 h
Calls of active or inactive are those of the source. Cut-off read from the data, not from the text of the source: active = GI50 up to about 1.1 µM and inactive = higher.
Labels: active, inactive

COc1nc(N=P(c2ccccc2)(c2ccccc2)c2ccccc2)cc(=O)[nH]1 ... inactive
O=C(O)[C@@H]1[C@H](C(=O)O)[C@H](C(=O)O)C[C@@H]1C(=O)O ... inactive
Cn1cncc1CC1COC(=O)C1C(O)c1ccccc1 (stereo not given) ... inactive
C=CCOn1c(C=C)nc2ccc(C)cc21 ... inactive
NC(CCCC(N)P(=O)(O)c1ccccc1)P(=O)(O)c1ccccc1 (stereo not given) ... inactive
Cc1ccccc1-c1c(N)nc(NC#N)nc1C(=O)Nc1ccccc1 ... inactive
COc1ccc2c(c1)c(=O)c1ccccc1n2/C=C/C(=O)O ... inactive
c1ccc2[nH]c3[nH]c4[nH]c5ccccc5[nH]c4[nH]c3[nH]c2c1 ... inactive
CCC1CCC2c3c([nH]c4ccccc34)C3C(=O)N(c4ccc(OC)cc4)C(=O)C3C2C1 (stereo not given) ... inactive
O=c1cnn(C/C=C\CO)c(=O)[nH]1 ... inactive
Cc1cccc(C(=O)O)c1CC1NCCC2c3ccccc3NC12 (stereo not given) ... inactive
CC(ON1[C@](C)(c2ccccc2)CC[C@@]1(C)c1ccccc1)c1ccccc1 (stereo not given in full) ... inactive
CCOc1cc(NC(C)=O)ccc1C(=O)NN1C(=O)C(Cl)C1c1ccc(O)c(OC)c1 (stereo not given) ... inactive
CC/C=C/C[C@H](O[Si](C)(C)C(C)(C)C)[C@H]1C[C@H]2O[C@H]([C@@H](O)C#C[Si](C)(C)C)C[C@H]2O1 ... inactive
Cc1cc(NS(=O)(=O)c2ccc(Nc3c4ccccc4nc4c(C(=O)NCCN(C)C)cccc34)cc2)no1 ... inactive
CC(=O)Nc1cccc2[nH]c3ccccc3c(=O)c12 ... inactive
C=CNC(=O)NC(=O)CSc1nc(=O)c(-c2ccccc2NC(=O)C(F)(F)F)n[nH]1 ... inactive
CCCc1[nH]c2ccccc2c1-c1c(CCC)[nH]c2ccccc12 ... inactive
COc1cc(/C=C2/C(=O)NC(Cc3cc(OC)c(OC)c(C)c3OC)C(=O)N2Cc2ccccc2)c(OC)c(C)c1OC (stereo not given) ... inactive
CC1OC(n2cc(F)c(=O)[nH]c2=O)CCC1O (stereo not given) ... inactive
Oc1ccc(-c2nc3ccc4ccccc4c3c3c2CCCC3)c(O)c1 ... inactive
C[C@]1(CO)[C@H]2CC[C@@]34C=C[C@@](CO)(CC[C@H]3[C@]2(C)CC[C@H]1O)C4 ... inactive
CCC(C)C1NC(=O)C(NC(=O)C(CC(C)C)N(C)C(=O)[C@@H]2CC(O)CN2C(=O)[C@H](C)O)C(C)OC(=O)[C@H](Cc2ccc(OC)cc2)N(C)C(=O)[C@@H]2CCCN2C(=O)[C@H](CC(C)C)NC(=O)C(C)C(=O)[C@H](C(C)C)OC(=O)CC1O (stereo not given in full) ... active
Cc1cc(C)c2c(=O)n(CN3CCN(c4ccccc4)CC3)sc2n1 ... inactive
BC(=O)NC(CC(C)C)C(=O)NC1c2ccsc2C(=O)C1O.CN(C)C (stereo not given) ... inactive
NC(=O)c1oc([N+](=O)[O-])c(-c2ccccc2)c1-c1ccccc1 ... inactive
CCCc1[nH]c(SCCCCCCCCSc2nc(-c3ccc(F)cc3)c(CCC)[nH]2)nc1-c1ccc(F)cc1 ... inactive
CC1CCC(=O)C(C(O)CC2CC(=O)N(c3ccccc3)C(=O)C2)C1 (stereo not given) ... inactive
C=C(C)OCOCCOC ... inactive
C=C(Cl)C(Br)(CCl)CCC(Br)C(C)(C)Cl (stereo not given) ... inactive
